Molecular target: FMDV O/Mya/98 146S antigen (Foot-and-mouth disease virus serotype …, UniProt G8JKC2, strain)
Assay: cell-based or functional assay
Readout Type: virus neutralizing test on BHK-21 cells, IC50

Binder	Recorded Measurement
B83 (antibody) VH: QVQLRESGPSLVKPSQTLSLTCTASGFSLSDKAVGWVRQAPGKALEWLGSIDTGGSTGYNPGLKSRLSITKDTSKTQVSLSVSSVTTEDSATYYCTNVHQKTTTERSCPDLGYKYECGNNCCWYSSCRGCIQGTYTSTYNFYVHAWGQGLRVTVSS VL: QAVLTQPSSVSGSLGQRVSITCSGSSSNVGNGYVSWYQLIPGSGPRTLIYGDTSRASGVPDRFSGSRSGNTATLTISSLQAEDEADYFCASTEDSSSNVVFGSGTTLTVL	12.2 µg/mL
E54 (antibody) VH: QVHLRESGPSLVKPSQTLSLTCTASGFSLSDRAVGWVRQAPGKALEWLGSIDTGGTTGYNPGLKSRLRITKDNSKSQVSLSVSTVTTDDSATYYCGAVYQTTETKTTCPEGYSNTGDCDDDCCCWGSDCSRYARWKRYRGGWFSSDYIVTEVYEFHVDAWGQGLLVSVSS VL: QAVLTQPSSVSGSLGQRVSITCSGSSSNVGNGYVSWYQLIPGSTPRTLIYGDTSPASGVPDRFSGSRSGNTATLTIISFQAEDEADYFCASAEDSSSNVVFGSGTTLTVL	3.65 µg/mL

We now examine a further binder.
Entry F136 (antibody, V domains shown) VH: QVQLRESGPSLVKPSQTLSLTCTVSGFSLSSKGVHWIRQAPGKALEWLGSTWSFGSAFNPALKSRLSITKDNSKSQVALSLSTVTPEDTATYYCARELYNGGSTWDAINGYNEERYYFDAWGQGLLVTVSS VL: QAVLTQPSSVSGSLGQSVSITCSGSSSNVGYGNYVSWFQQIPGSAPRMLIYGATSRASGVPYRFSGSRSGNTATLTINSLQAEDEADYFCASPDSSSSGYFAVFGSGTTLTVL ; virus neutralizing test on BHK-21 cells, IC50 = 1.67 µg/mL
